# credit: patent US7902200B2

Target: recombinant human pancreatic GLK (Homo sapiens)
Construct: 6-His (N); made in house; host or cells: E. coli BL21
Sequence (P35557 whole entry): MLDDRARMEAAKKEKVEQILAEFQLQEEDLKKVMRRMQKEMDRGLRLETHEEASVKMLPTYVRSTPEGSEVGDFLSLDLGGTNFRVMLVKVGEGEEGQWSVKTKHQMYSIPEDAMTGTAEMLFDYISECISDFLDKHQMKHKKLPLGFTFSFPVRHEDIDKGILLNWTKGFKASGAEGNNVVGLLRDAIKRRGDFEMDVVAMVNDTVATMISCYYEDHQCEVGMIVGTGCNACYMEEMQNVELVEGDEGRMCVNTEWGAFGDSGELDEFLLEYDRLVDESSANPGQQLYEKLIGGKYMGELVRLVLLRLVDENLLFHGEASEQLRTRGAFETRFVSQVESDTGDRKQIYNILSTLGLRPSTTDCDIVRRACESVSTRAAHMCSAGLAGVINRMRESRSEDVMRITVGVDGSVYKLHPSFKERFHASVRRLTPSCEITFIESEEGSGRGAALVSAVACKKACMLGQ
Test: GKH4 variant of GLK enzymatic activity assay (automated end-point assay)
Assay type: biochemical
Conditions: activation of GLK; 10 nmol/l GLK; end-point at 10 minutes; no GLKRP
# note: boundary value 300 nM maps to rule not met; EC50 below it maps to rule met

[[record]]
molecule = "Cc1csc(NC(=O)c2cc(Oc3cnc(C(=O)N4CCC4)cn3)cc(O[C@@H]3CCN(C)C3=O)c2)n1"
answer_label = "rule not met"


# input Answer whether the molecule "Cc1cnc(NC(=O)c2cc(Oc3ccc(C(=O)N4CCC4)cc3)cc(O[C@H]3CCN(C)C3=O)c2)cn1" has EC50 strictly less than 300 nM
# output rule met

# input Next molecule up: "Cc1cnc(NC(=O)c2cc(Oc3ccc(S(C)(=O)=O)cc3)cc(O[C@H]3CCN(C)C3=O)c2)cn1"
# output rule not met

# input Next molecule up: "CCN1CC[C@H](Oc2cc(Oc3ccc(C(=O)N4CCC4)nc3)cc(C(=O)Nc3cnc(C)cn3)c2)C1=O"
# output rule met

# input Next molecule up: "Cc1cnc(NC(=O)c2cc(Oc3cnc(C(=O)N(C)C)cn3)cc(O[C@H]3CCN(C)C3=O)c2)cn1"
# output rule not met

# input Next molecule up: CCN1CCC(Oc2cc(Oc3ccc(C(=O)N4CCC4)nc3)cc(C(=O)Nc3cnc(C)cn3)c2)C1=O (racemic)
# output rule met

# input Next molecule up: "Cc1cnc(NC(=O)c2cc(Oc3ncc(C(=O)N4CCC4)cc3Cl)cc(O[C@H]3CCN(C)C3=O)c2)cn1"
# output rule met

# input Next molecule up: Cc1cnc(NC(=O)c2cc(Oc3ccc(C(=O)N4CCC4)nc3)cc(OC3CCN(C4CCC4)C3=O)c2)cn1 (racemic)
# output rule not met

# input Next molecule up: "Cc1cnc(NC(=O)c2cc(Oc3ccc(C(=O)N4CCC4)nc3)cc(O[C@H]3CCN(C4CCC4)C3=O)c2)cn1"
# output rule not met

# input Next molecule up: "Cc1cnc(NC(=O)c2cc(Oc3ccc(C(=O)N4CCC4)nc3)cc(O[C@@H]3CCN(C4CC4)C3=O)c2)cn1"
# output rule not met

# input Next molecule up: "CCN1CC[C@@H](Oc2cc(Oc3ccc(C(=O)N4CCC4)nc3)cc(C(=O)Nc3cnc(C)cn3)c2)C1=O"
# output rule not met

# input Next molecule up: "CN1CC[C@H](Oc2cc(Oc3ccc4c(c3)OCCCS4(=O)=O)cc(C(=O)Nc3cc[nH]n3)c2)C1=O"
# output rule met

# input Next molecule up: "Cc1csc(NC(=O)c2cc(Oc3cnc(C(=O)N4CCC4)cn3)cc(O[C@H]3CCN(C)C3=O)c2)n1"
# output rule met

# input Next molecule up: "Cc1csc(NC(=O)c2cc(Oc3cnc(C(=O)N(C)C)cn3)cc(O[C@H]3CCN(C)C3=O)c2)n1"
# output rule met

# input Next molecule up: "CN1COc2cc(Oc3cc(O[C@H]4CCN(C)C4=O)cc(C(=O)Nc4cc[nH]n4)c3)ccc2C1=O"
# output rule met

# input Next molecule up: "CN1CC[C@H](Oc2cc(Oc3ccc(C(=O)N4CCC4)nc3)cc(C(=O)Nc3cnccn3)c2)C1=O"
# output rule not met

# input Next molecule up: "Cc1cnc(NC(=O)c2cc(Oc3ccc4c(c3)OCCN(C)S4(=O)=O)cc(O[C@H]3CCN(C)C3=O)c2)cn1"
# output rule not met

# input Next molecule up: "CN1CC[C@H](Oc2cc(Oc3ccc(C(=O)N4CCC4)cc3)cc(C(=O)Nc3cc[nH]n3)c2)C1=O"
# output rule met

# input Next molecule up: "Cc1cnc(NC(=O)c2cc(Oc3ccc4c(c3)OCN(C)C4=O)cc(O[C@H]3CCN(C)C3=O)c2)cn1"
# output rule not met

# input Next molecule up: "Cc1cnc(NC(=O)c2cc(Oc3ccc4c(c3)OCCCS4(=O)=O)cc(O[C@H]3CCN(C)C3=O)c2)cn1"
# output rule met
